Test: Cytotoxicity against rat H9c2 cells assessed as decrease in cell viability after 72 hrs by neutral red staining based assay
Assay type: toxicity
quantityName: IC50 at 72 h

cpdSmiles: CC/C(=N\NC(=O)c1cccc2ccccc12)c1ccccc1O
recordedMeasurement: > 200 µM
//
cpdSmiles: C/C(=N\NC(=O)c1ccc(-c2ccccc2)cc1)c1ccccc1O
recordedMeasurement: > 100 µM

Next item in the queue.
Given "CC/C(=N\NC(=O)c1cnccn1)c1ccccc1O" , state its recorded IC50 at 72 h. > 100 µM

###

Assay: Cytotoxicity against human HL60 cells assessed as decrease in cell viability after 72 hrs by MTT assay
Type: functional, cell-based
Details: HL-60, 72 h
Just a reminder that ties go to not met: only IC50 strictly below 6 µM counts as met.

compound: C/C(=N\NC(=O)c1cnccn1)c1ccccc1O
qualitativeLabel: not met

Hello, I'm reviewing records and need to know if IC50 of O=C(N/N=C/c1ccccc1O)c1ccncc1 [SALINAZID] is below 6 µM. Could you check? met

What about this compound? "C/C(=N\NC(=O)c1ccc(-c2ccccc2)cc1)c1ccccc1O" met

What about this compound? "CC/C(=N\NC(=O)c1cccnc1)c1ccccc1O" met

What about this compound? "CC/C(=N\NC(=O)c1cccc2ccccc12)c1ccccc1O" met

What about this compound? "C/C(=N\NC(=O)c1ccnnc1)c1ccccc1O" not met

What about this compound? "CC/C(=N\NC(=O)c1ccnnc1)c1ccccc1O" not met

What about this compound? "C/C(=N\NC(=O)c1cccc2ccccc12)c1ccccc1O" met

What about this compound? "C/C(=N\NC(=O)c1cccnc1)c1ccccc1O" not met

What about this compound? "CC/C(=N\NC(=O)c1ccc(-c2ccccc2)cc1)c1ccccc1O" met

###

What Activity was measured for each of the following?
Assay: Iron chelating activity assessed as Fe3+-compound complex-induced antioxidant activity by measuring ascorbate oxidation level at iron binding equivalent of 3 measured after 10 to 40 mins in presence of 500 uM of citrate relative to control
Type: physicochemical

cpdSmiles: C/C(=N\NC(=O)c1ccnnc1)c1ccccc1O
recordedMeasurement: 10 to 44%
//
cpdSmiles: CC/C(=N\NC(=O)c1cnccn1)c1ccccc1O
recordedMeasurement: 10 to 44%
//
cpdSmiles: CC/C(=N\NC(=O)c1ccnnc1)c1ccccc1O
recordedMeasurement: 10 to 44%

Batch request: Activity per item, same order as input.
1. O=C(N/N=C/c1ccccc1O)c1ccncc1
2. CC(=O)N(O)CCCCCNC(=O)CCC(=O)N(O)CCCCCNC(=O)CCC(=O)N(O)CCCCCN

1. 7%
2. 16%
